Test system: SAGPY (Arrowhead (Pygmaea))
Assay: Preemergence weed control under flooded paddy conditions
Type: in vivo, Sagittaria pygmaea
Details: 0.2500 kg/ha, rated 3-4 weeks after treatment
Endpoint Label: SAGPY herbicidal effect rating

Example results:
query: Using known records, supply SAGPY herbicidal effect rating for CN1C(=O)C(CC(=O)O)SC1=Nc1cc(-n2c(=O)cc(C(F)(F)F)n(C)c2=O)c(F)cc1Cl (stereo not drawn) [Compound 63]
result: 9.0

query: Using known records, supply SAGPY herbicidal effect rating for CCOC(=O)CN1C(=O)C(Cc2ccccc2OCC(=O)O)S/C1=N/c1cc(-n2c(=O)cc(C(F)(F)F)n(C)c2=O)c(F)cc1Cl (stereo not drawn) [Compound 113]
result: 9.0

query: Using known records, supply SAGPY herbicidal effect rating for C=CCN1C(=O)C(CC(=O)NC)SC1=Nc1cc(-n2c(=O)cc(C(F)(F)F)n(C)c2=O)c(F)cc1Cl (stereo not drawn) [Compound 84]
result: 9.0

query: Using known records, supply SAGPY herbicidal effect rating for C#CCOC(=O)CC1SC(=Nc2cc(-n3c(=O)cc(C(F)(F)F)n(C)c3=O)c(F)cc2Cl)N(C)C1=O (stereo not drawn) [Compound 90]
result: 9.0

query: Using known records, supply SAGPY herbicidal effect rating for CN1C(=O)C(CC(=O)Nc2ccccc2)SC1=Nc1cc(-n2c(=O)cc(C(F)(F)F)n(C)c2=O)c(F)cc1Cl (stereo not drawn) [Compound 91]
result: 0.0

Others:
query: Using known records, supply SAGPY herbicidal effect rating for C#CCOC(=O)CN1C(=O)CSC1=Nc1cc(-n2c(=O)cc(C(F)(F)F)n(C)c2=O)c(F)cc1Cl [Compound 115]
result: 6.0

query: Using known records, supply SAGPY herbicidal effect rating for C=CCN1C(=O)C(CC(=O)OCCF)SC1=Nc1cc(-n2c(=O)cc(C(F)(F)F)n(C)c2=O)c(F)cc1Cl (stereo not drawn) [Compound 86]
result: 9.0

query: Using known records, supply SAGPY herbicidal effect rating for Cn1c(C(F)(F)F)cc(=O)n(-c2cc(/N=C3/SC(CC(=O)O)C(=O)N3CC(=O)O)c(Cl)cc2F)c1=O (stereo not drawn) [Compound 61]
result: 0.0

query: Using known records, supply SAGPY herbicidal effect rating for C=CCN1C(=O)C(CC(=O)NS(=O)(=O)c2ccccc2)SC1=Nc1cc(-n2c(=O)cc(C(F)(F)F)n(C)c2=O)c(F)cc1Cl (stereo not drawn) [Compound 101]
result: 2.0

---

Test system: ECHCG (Barnyardgrass)
Assay: Postemergence herbicidal evaluation
Type: in vivo, Echinochloa crus-galli
Conditions: postemergence, rate 0.0625 kg/ha
Protocol: In the tests, seedling plants are grown in jiffy flats for about two weeks. The test compounds are dispersed in 50/50 acetone/water mixtures containing 0.5% TWEEN®20, a polyoxyethylene sorbitan monolaurate surfactant of Atlas Chemical Industries, in sufficient quantities to provide the equivalent of about 0.0156 kg to 0.500 kg per hectare of active compound when applied to the plants through a spray nozzle operating at 40 psi for a predetermined time. […]
Endpoint Label: Herbicidal rating ECHCG
Number only, please.

Example results:
query: Using known records, supply Herbicidal rating ECHCG for `Cc1cc(C)cc(CN2C(=O)CSC2=Nc2cc(-n3c(=O)cc(C(F)(F)F)n(C)c3=O)c(F)cc2Cl)c1`
result: 2.0

query: Using known records, supply Herbicidal rating ECHCG for `CC(C)COC(=O)CN1C(=O)CSC1=Nc1cc(-n2c(=O)cc(C(F)(F)F)n(C)c2=O)c(F)cc1Cl`
result: 0.0

query: Using known records, supply Herbicidal rating ECHCG for C=CCN1C(=O)C(CC(=O)NS(=O)(=O)CC)SC1=Nc1cc(-n2c(=O)cc(C(F)(F)F)n(C)c2=O)c(F)cc1Cl (stereo not shown)
result: 0.0

query: Using known records, supply Herbicidal rating ECHCG for `Cn1c(C(F)(F)F)cc(=O)n(-c2cc(N=C3SCC(=O)N3Cc3cccnc3)c(Cl)cc2F)c1=O`
result: 2.0

query: Using known records, supply Herbicidal rating ECHCG for `Cc1ccc(CN2C(=O)CSC2=Nc2cc(-n3c(=O)cc(C(F)(F)F)n(C)c3=O)c(F)cc2Cl)cc1Cl`
result: 0.0

query: Using known records, supply Herbicidal rating ECHCG for CCOC(=O)CN1C(=O)C(Br)SC1=Nc1cc(-n2c(=O)cc(C(F)(F)F)n(C)c2=O)c(F)cc1Cl (stereo not shown)
result: 1.0

Others:
query: Using known records, supply Herbicidal rating ECHCG for `Cn1c(C(F)(F)F)cc(=O)n(-c2cc(N=C3SCC(=O)N3Cc3ccncc3)c(Cl)cc2F)c1=O`
result: 1.0

Data provenance is patent US20020137929A1.
